Would you mind telling me the reported Ki of each entry?
- assay.target: Prostaglandin D2 receptor (Rattus norvegicus)
- Sequence (Q9R261 whole entry): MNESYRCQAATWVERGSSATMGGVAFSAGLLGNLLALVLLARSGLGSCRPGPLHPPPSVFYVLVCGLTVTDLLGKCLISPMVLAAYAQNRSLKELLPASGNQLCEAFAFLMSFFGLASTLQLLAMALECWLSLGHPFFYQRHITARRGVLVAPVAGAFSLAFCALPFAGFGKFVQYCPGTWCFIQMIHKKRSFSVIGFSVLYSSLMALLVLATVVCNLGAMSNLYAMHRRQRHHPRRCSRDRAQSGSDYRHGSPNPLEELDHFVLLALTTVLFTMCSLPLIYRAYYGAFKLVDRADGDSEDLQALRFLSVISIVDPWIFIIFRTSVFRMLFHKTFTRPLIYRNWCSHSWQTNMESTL
Give bare numbers, in µM.

In the examples that follow, each entry is paired with its recorded Ki.
molecule="CCCCCC(O)C=CC1C(O)CC2OC(=CCCCC(=O)O)CC21 (configuration not stated)" recorded_metric=Ki unit_tag=µM value_reported=3.54
molecule="CCCCC[C@H](O)/C=C/C1[C@H](O)C[C@H](O)[C@@H]1C/C=C\\CCCC(=O)O (some centres not stated)" recorded_metric=Ki unit_tag=µM value_reported=0.693
molecule="CCCCCC(O)C=CC1C(=O)CC(O)C1CC=CCCCC(=O)OC (configuration not stated)" recorded_metric=Ki unit_tag=µM value_reported=0.027

Q: Kindly indicate its recorded Ki. Item: "CCCCC[C@@H](O)/C=C/[C@H]1[C@H](O)CC(=O)[C@@H]1CCCCCCC(=O)O"
A: 3.76
